Test: Solvent solubility (butyl acetate, toluene or PGMEA)
Format: physicochemical
Conditions: toluene, 25° C.
measuredMetric: Solvent solubility Toluene (wt %)

O=C1c2cccc3c(Oc4cccc(C(F)(F)F)c4)ccc(c23)C(=O)N1OS(=O)(=O)C(F)(F)F: 13

I: O=C1c2cccc3c(C(F)(F)C(F)(F)C(F)(F)C(F)(F)F)ccc(c23)C(=O)N1OS(=O)(=O)c1c(F)c(F)c(F)c(F)c1F
II: CC1(C)C2CC[C@@]1(CS(=O)(=O)ON1C(=O)c3cc(C45CC6CC(CC(C6)C4)C5)cc4cc(C56CC7CC(CC(C7)C5)C6)cc(c34)C1=O)C(=O)C2
Query: Of I and II , whose reported Solvent solubility Toluene is numerically smaller? // caller expects the label of the chosen entry
Response: II
(II: 2.1 wt %, I: 11 wt %)
